study-system: T1, "Non-linked" human IL-23 (human p40 coexpressed in 293T cells with human p19:FLAG-tag peptide) (human, UniProt P29460 23-328)
T1 sequence 1: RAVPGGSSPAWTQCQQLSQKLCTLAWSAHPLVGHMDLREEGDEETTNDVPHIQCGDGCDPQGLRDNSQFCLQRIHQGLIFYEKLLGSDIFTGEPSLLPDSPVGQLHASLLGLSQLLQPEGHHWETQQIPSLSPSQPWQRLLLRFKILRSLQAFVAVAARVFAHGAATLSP
T1 sequence 2: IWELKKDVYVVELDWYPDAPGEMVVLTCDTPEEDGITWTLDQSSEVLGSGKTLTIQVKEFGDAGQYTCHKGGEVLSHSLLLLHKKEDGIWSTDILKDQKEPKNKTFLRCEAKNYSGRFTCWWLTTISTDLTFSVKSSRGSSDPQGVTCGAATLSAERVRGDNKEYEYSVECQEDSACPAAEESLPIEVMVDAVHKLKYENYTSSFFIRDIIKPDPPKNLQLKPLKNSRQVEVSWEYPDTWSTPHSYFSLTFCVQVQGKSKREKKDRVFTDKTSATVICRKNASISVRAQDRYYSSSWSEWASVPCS
assay-details: cell-based or functional assay
readout-label: IC50 for blocking of Ba/F3 cell proliferation (nM)

1) mouse anti-human IL-23p19 antibody 33B12 (antibody, V domains shown) VH: QVQLQQSGAELARPGASVKLSCKASGYTFTSYSLKWVKQRTGQGLEWIGEIHPRSGNTHYNEKFKGKATLTADKSSSTAYMDLRSLTSEDSAVYFCATNWDLGYWGQGTTITVSS VL: DIVLTQSPATLSVTPGDRVSLSCRASQSISDYLHWFQQRSHESPRLLIKYASQSISGIPSRFSGSGSGSDFTLSINSVEPEDVGVYYCQNGHSFPFTFGSGTKLEIKR: 193
2) humanized anti-human IL-23p19 antibody hum6H12 (antibody, human IgG1, kappa, V domains shown) VH: QVQLVQSGAEVKKPGASVKVSCKASGYTFNRYLIHWVRQAPGQGLEWMGYINPNNAGTNYNEKFKGRVTMTTDTSTSTAYMELRSLRSDDTAVYYCARNWDQAYWGQGTLVTVSS VL: DIQMTQSPSSLSASVGDRVTITCRASQSISDYLHWYQQKPGKAPKLLIYYTSQSISGVPSRFSGSGSGTDFTLTISSLQPEDFATYYCQNGHSFPFTFGQGTKVEIKR: 4000
3) mouse anti-human IL-23p19 antibody 35F12 (antibody, V domains shown) VH: QVQLQQPGAELMRPGASVRLSCKASGYSFTTSWMNWVKQRPGQGLEWIGMIHPSDSETRLNQNFKDKATLTVDRSSSTAYMQLNSPTSEDSAVYYCARGMITAPSVYWGQGTLVTVSA VL: DIVLTQSPASLAVSLGQRATISCRASKSVSTSAYSYFHWYQQKPGQPPKLLIYLASNLESGVPARFSGSGSGTDFTLNIHPVEEGDAATYYCQHSRELPWTFGGGTKLEITR: 73
